Value source: PubChem BioAssay (NCI)

GI50 by entry:
- System: OVCAR-3 ovarian
- Assay comment: NCI tumour cell line growth inhibition, 48 h

Past entries and their recorded results:
>>> meas_value("COc1ccc(-c2ccc(NNC(=O)c3ccc(F)cc3)nn2)cc1OC")
"79.7 µM"
>>> meas_value("Oc1ccc(N=Nc2nccs2)c(O)c1")
"2.4 µM"
>>> meas_value("Cc1ccc2[c](c1)[Sn]([c]1ccccc1)([c]1ccccc1)[c]1cc(C)ccc1N2C")
"37.9 µM"
>>> meas_value("O=C(Nc1ccc(Cl)cc1)Nc1nccs1")
"1.95 µM"
>>> meas_value("Cc1cc(NCCCCNc2ccnc3cc(Cl)ccc23)nc(Nc2ccc(C(=O)N3CCCCC3)cc2)n1")
"1.7 µM"

Turning now to a further compound:
Let me know recorded GI50 for NCCCn1c2c(c3ccccc3c1=O)C(=O)c1ccccc1-2 , thanks. 0.721 µM
